Target: Luciferin 4-monooxygenase (Photinus pyralis)
Assay: qHTS profiling assay for firefly luciferase inhibitor/activator using purifed enzyme and Km concentrations of substrates (counterscreen for miR-21 project); also: nearly all actives have a fitted effect of over 55% in size
Conditions: purified FLuc, luminescence inhibition; series mostly up to 57.5 µM
Hit rate of the full screen: of about 360,000 compounds, about 25,000 (6.9%) were called active. Inconclusive results (about 9%) are left out. Calls follow the shape of the dose curve; as a rule, active = well fitted inhibition curve with a large enough effect; inconclusive = small, poorly fitted or top-dose-only effect; inactive = flat fitted curve, though single readings scatter. Many of the other results were omitted from the sample, so actives are more common in it than they were.
Tick one outcome: 1.0 = active, 0.0 = inactive

Check the results log: what was the call for `O=C(CSc1nnc(SCc2ccc(Cl)cc2)s1)N/N=C/c1ccccc1Cl` ?
1.0

Field: outcome | Entry: `COc1cccc(N(CC(=O)NC2CCCC2)C(=O)CCCC(=O)Nc2ccccn2)c1`
0.0

For `COc1cc(OC)cc(C(=O)Nc2ccc(S(=O)(=O)Nc3cc(C)on3)cc2)c1` , what call appears in the results of this test?
0.0

// outcome(item) with item = `COc1ccc(-c2nc3scc(CCNS(=O)(=O)c4cc(F)ccc4OC)n3n2)cc1OC`
0.0

Lab log entry: `Cc1cccc[n+]1CC(=O)c1ccccc1` — outcome as called in the assay?
0.0

// outcome(item) with item = CC1=C(C(=O)OCc2ccc(C)cc2)C(c2c(Cl)cccc2Cl)CC(=O)N1 (stereo unspecified)
0.0

What call does the record list for CCOC(=O)C1(Cc2ccccc2C)CCCN(C(=O)CCc2c(C)noc2C)C1 (stereo unspecified) ?
0.0

Call for entry `O=C(/C=C\NCC(=O)c1ccccc1)c1ccccc1` :
1.0

In this assay, the call recorded for CCOC(=O)c1ccc(N2C(=O)c3n[nH]c(C)c3C2c2ccc(O)c(OC)c2)cc1 (stereo unspecified) was what?
0.0

Entry `COc1ccc(Br)cc1CN1CCN(C(=O)c2cccc(OC)c2OC)CC1` : call = ?
0.0

# outcome recorded in this test, key = COc1ccc(C2c3c(oc4ccccc4c3=O)C(=O)N2Cc2ccc3c(c2)OCO3)cc1 (stereo unspecified)
0.0

# lookup: test call for `Cc1ccc(-n2c(CNc3ccc(F)cc3)nnc2SCC(=O)N2CCOCC2)cc1`
0.0

For COCCCNC(NC(=O)c1ccc(C)cc1)C(Cl)(Cl)Cl (stereo unspecified) , which call appears in the assay record?
0.0

// outcome(item) with item = `O=C(CC(=O)N/N=C\c1cccc(Cl)c1Cl)NCc1ccccc1`
0.0

Assay result, entry `O=C(Nc1cccc(S(=O)(=O)Nc2ccc(Cl)cc2)c1)c1ccc2c(c1)OCCO2` — outcome?
1.0

What call does the record list for `COc1cccc(C(=O)OCc2cc(=O)oc3c(C)c(C)ccc23)c1OC` ?
1.0

Returns: the outcome recorded for `Cc1ccc(S(=O)(=O)Nc2nc3ccccc3nc2N2CCc3ccccc3C2)cc1` in this assay.
0.0

Which outcome did this test record for the molecule `COC(=O)c1cc2occc2n1Cc1nc(-c2ccc(C)cc2)oc1C` ?
0.0

Field: outcome | Entry: `O=C(Cc1ccccc1)N/N=C/c1ccc(Cl)cc1Cl`
0.0

What did this assay record as the result for `COc1ccc(CCNC2=C(Cl)C(=O)N(Cc3ccccc3)C2=O)cc1OC` ?
0.0

For this molecule, state the assay outcome: `O=C(Nc1ncccc1O)c1ccc(S(=O)(=O)N2CCCCCC2)cc1`
0.0

Outcome? `O=C(O[C@H]1[C@H](Cc2ccccc2)NS(=O)(=O)[C@H]2C[C@@H]3C=C[C@]12O3)c1ccc([N+](=O)[O-])cc1`
0.0

I would be grateful if you could indicate the recorded call for `O=C(/C=C/NCc1ccc(F)cc1)c1ccccc1` .
1.0

How was `Cc1noc(C)c1CCC(=O)O` classified in this test?
0.0

Name the outcome recorded for O=C(Nc1ccc(C2CC2(Cl)Cl)cc1)c1cccc([N+](=O)[O-])c1 (stereo unspecified) in the assay.
1.0

Each molecule tested received a call. Report the one for `COc1ccc(C/C(C)=N/NC(=O)c2ccncc2)cc1` .
0.0

# outcome recorded in this test, key = Cc1ccccc1CC1(CO)CCCN(C(=O)c2cc(-c3ccccc3)no2)C1 (stereo unspecified)
0.0

Recorded test call requested for CCOCCCN(C(=O)Cn1nnc(-c2ccc(OC)c(OC)c2)n1)C(CC)C(=O)NC1CCCC1 (stereo unspecified)
0.0

GET /call?item= COC(=O)CCC(=O)N1CCCC(CO)(Cc2ccccc2)C1 (stereo unspecified) returns the recorded outcome of this test.
1.0

Name the outcome recorded for Nc1c(Cl)cc(-c2csc(N3CCCC3c3nc4cc(Cl)c(Cl)cc4n3CCOCCO)n2)cc1Cl (stereo unspecified) in the assay.
0.0

Identify the outcome logged in this assay for the molecule shown: `CCOc1ccc(CC(=O)Nc2ccc(S(=O)(=O)Nc3cc(C)on3)cc2)cc1OCC`
0.0

# outcome recorded in this test, key = Cc1ccc(C(=O)CC2(O)C(=O)N(CCc3ccccc3)c3ccc(Br)cc32)cc1 (stereo unspecified)
0.0

Could you kindly confirm the outcome this assay logged for `O=C(NC(=O)c1ccccc1)Nc1ccccc1O` ?
1.0

Record lookup: outcome of this test for COc1cccc(NC(=O)N2C3CCCC2CC(NC(C)=O)C3)c1 (stereo unspecified) ?
0.0

How was `COC(C[C@H](O)CC(=O)COCc1ccccc1)OC` classified in this test?
0.0

For this molecule, state the assay outcome: `Cc1ccc2c(c1)c1ncn(Cc3ccc(F)cc3)c(=O)c1n2C`
0.0

Origin of the recorded values: PubChem BioAssay AID588342
